Target: human ghrelin receptor (human, UniProt Q92847 1-366)
Sequence (Q92847 whole entry): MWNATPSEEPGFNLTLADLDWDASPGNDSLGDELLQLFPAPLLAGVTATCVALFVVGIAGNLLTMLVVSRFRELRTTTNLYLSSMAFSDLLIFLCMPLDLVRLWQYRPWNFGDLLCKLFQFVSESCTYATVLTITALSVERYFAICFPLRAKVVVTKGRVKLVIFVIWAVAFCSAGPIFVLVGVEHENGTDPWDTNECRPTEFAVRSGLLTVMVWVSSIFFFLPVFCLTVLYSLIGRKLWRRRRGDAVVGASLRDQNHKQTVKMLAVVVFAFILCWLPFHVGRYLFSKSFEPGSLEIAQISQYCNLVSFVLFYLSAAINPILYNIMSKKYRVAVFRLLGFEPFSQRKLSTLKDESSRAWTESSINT
Experiment: cell-based or functional assay
observed_property: x-fold (EC50) compared to K-(D-1-Nal)-FwLL-NH2 (fold)
Provide the reading as a plain figure in fold.

Reported x-fold (EC50) compared to K-(D-1-Nal)-FwLL-NH2 of KXXXLL (1-naphthyl-D-alanine (D-1-Nal) at 2; tert-butyl-L-phenylalanine (L-tBf) at 3; D-Trp at 4; C-terminal amide) [K-(D-1-Nal)-(L-tBf)-wLL-NH2] : 36.5

Ref: patent US20150274781A1
